FYI, the data here is from ChEMBL document CHEMBL1201862.

# Test system: SK-MEL-2
# protocol-details: NCI tumour cell line growth inhibition, 48 h
Activity calls are given as the source filed them. Cut-off read from the data, not from the text of the source: active = GI50 up to about 1.1 µM and inactive = higher.
Entries and their measured GI50 follow.
readout-kind: GI50

compound: COc1cc(C2C(Cl)C(=O)N2NC(=O)c2ccccc2O)ccc1O (stereo not given)
observed: > 100 µM (inactive)
--
compound: Cc1nc(N)nc(CCC(=O)Nc2cccc(C(F)(F)F)c2)c1-c1ccc(Cl)cc1
observed: > 100 µM (inactive)
--
compound: COC1=C2CC(C)CC(OC)C(OC(=O)CN)[C@H](C)/C=C(\C)C(OC(N)=O)C(OC)/C=C\C=C(/C)C(=O)NC(=CC1=O)C2=O (stereo not given in full)
observed: 3.84 µM (inactive)
--
compound: Fc1c(F)c(C(F)(F)F)c(F)c(F)c1N/N=C/c1cn(Cc2ccccc2)c2ccccc12
observed: 25.6 µM (inactive)
--
compound: O=C1OCCC12CN(Cc1ccccc1)N=N2 (stereo not given)
observed: > 100 µM (inactive)
--
compound: CC1(C(=O)O)CCC(C(=O)O)C(C)(C)O1 (stereo not given)
observed: > 100 µM (inactive)
--
compound: O=C(CN1CCCCC1)c1ccc2[nH]c(=O)oc2c1
observed: > 100 µM (inactive)
--
compound: CC1(C)CCC[C@]2(C)[C@H]3[C@H](C#N)c4cc(O)c(O)cc4O[C@@]3(C)CC[C@@H]12
observed: > 10 µM (inactive)
--
compound: O=C1OC2(CC1C1(O)C3CC4CC(C3)CC1C4)C1CC3CC(C1)CC2C3 (stereo not given)
observed: > 100 µM (inactive)
--
compound: CCO/C([O-])=C(/C=O)[n+]1c(C)n(C)c2ccccc21
observed: > 100 µM (inactive)

====

# System: MCF7
# protocol-details: NCI tumour cell line growth inhibition, 48 h
Structures can show the parent of a compound that is named as a salt. Active and inactive are the calls of the source. No stated cut-off is given here; in the data, active = GI50 up to about 1.1 µM and inactive = higher.
Below: a set of entries, each annotated with reported GI50.
readout-kind: GI50

molecule: CCCCCCCCCCCCCOCCOCCOCCCCC(O)CCCCCCCCCC1=C[C@H](C)OC1=O (stereo not given in full)
readout-kind: GI50
observed: 10.1 µM (inactive)
//
molecule: COC(=O)[C@@H]1C=CCN1S(=O)(=O)c1ccc(C)cc1
readout-kind: GI50
observed: > 100 µM (inactive)
//
molecule: CC12CCC(CC1(Cl)Cl)C2 (stereo not given)
readout-kind: GI50
observed: > 100 µM (inactive)
//
molecule: Cc1cc(C)c(NC(=S)NC(=O)c2ccccc2)cc1C
readout-kind: GI50
observed: 38.2 µM (inactive)
//
molecule: Nc1nc(N)nc(-c2cnc3ccccc3c2)n1
readout-kind: GI50
observed: > 100 µM (inactive)
//
molecule: O=C(O)C1C2c3ccccc3C(c3ccccc32)C1C(=O)NCC1CC1 (stereo not given)
readout-kind: GI50
observed: 52.1 µM (inactive)
//
molecule: COc1ccc(CC(=O)N2CCC3(C)CC(=O)CC=C23)cc1OC (stereo not given)
readout-kind: GI50
observed: > 100 µM (inactive)
//
molecule: COc1ccc(/C(C)=N/OC(=O)c2c(-c3ccccc3Cl)noc2C)cc1CN1CCOCC1
readout-kind: GI50
observed: 20.8 µM (inactive)
//
molecule: CN1CCC(CN2c3ccccc3Sc3ccccc32)C1 (stereo not given) [METHDILAZINE HYDROCHLORIDE]
readout-kind: GI50
observed: 17.2 µM (inactive)
//
molecule: CCCCCCCCCCC(O)[C@H]1CCC(C2CC[C@H]([C@H](O)CCCCCCCCCCC(O)CC3=CC(C)OC3=O)O2)O1 (stereo not given in full)
readout-kind: GI50
observed: 1.21 µM (inactive)
